Test system: NOMO1
experimental.details: AUC of viability dose-response curve (% viability x log10 dose units); higher = less sensitive
condition.label: RPMI 5 mM glucose + 10% FBS; 48 h
Would you kindly list AUC of viability dose-response curve for each of these compounds?
One number for each entry.

compound=C/C=C/C[C@@H](C)C(=O)[C@H]1C(=O)N[C@@H](C(C)C)C(=O)N(C)CC(=O)N(C)[C@@H](CC(C)C)C(=O)N[C@@H](C(C)C)C(=O)N(C)[C@@H](CC(C)C)C(=O)N[C@@H](C)C(=O)N[C@H](C)C(=O)N(C)[C@@H](CC(C)C)C(=O)N(C)[C@@H](CC(C)C)C(=O)N(C)[C@@H](C(C)C)C(=O)N1C assay_endpoint="AUC of viability dose-response curve" recorded_result=466
compound=C[C@@H]\1COC(=N1)\NC2=CC3=C(C=C2)N=CN=C3NC4=CC(=C(OCC5=NC=CS5)C=C4)Cl assay_endpoint="AUC of viability dose-response curve" recorded_result=447
compound=O=C1c2c(O)cc(O)cc2O[C@H](c2ccc(O)c(O)c2)[C@H]1O assay_endpoint="AUC of viability dose-response curve" recorded_result=475
compound="CC\\1=C(C(\\N=C(/N1)C2=CC(=NC=C2)Cl)C3=C(F)C=C(Cl)C=C3)/C(=O)NC4=C(F)C=C5[NH]N=CC5=C4 (stereo unspecified)" assay_endpoint="AUC of viability dose-response curve" recorded_result=443

Kindly give each listed record's AUC of viability dose-response curve.
1. CC(C)(C)C(=O)Oc1ccc2c(c1)nc(NC(=O)c1cccc([N+](=O)[O-])c1)n2CCCO
2. Cn1cc(/C=C/C(=O)c2cccc(F)c2)cc1/C=C/C(=O)NO

// result
[459, 470]

* * *

Test system: SEM cells
experimental.details: cell viability relative to DMSO control; higher = less cytotoxic
condition.label: RPMI 5 mM glucose + 10% dialyzed FBS; 48 h; 46.1 µM
So I've got a bunch of compounds here, and I need their cell viability values.
One number for each entry, in %.

Answered examples (5):
compound=CC(C)n1nc(-c2cc3cc(O)ccc3[nH]2)c2c(N)ncnc21 recorded_result=6.33
compound="CCC(C)SSc1ncc[nH]1 (stereo unspecified)" recorded_result=6.57
compound=Cc1cn2c(-c3cn[nH]c3)cnc2c(Nc2ccc(C(=O)N3CCNCC3)cc2F)n1 recorded_result=9.99
compound=COC1=NC(=NC(=C1N\C2=N\CCN2)Cl)C recorded_result=113
compound=C/C=C1\NC(=O)[C@H]2CSSCC/C=C\[C@H](CC(=O)N[C@H](C(C)C)C(=O)N2)OC(=O)[C@H](C(C)C)NC1=O recorded_result=4.19

Give cell viability for each of the items listed below.
1. COc1ccc(Cc2ccc(NC(N)=O)cc2)cc1-c1cccc(Cl)c1
2. C[C@H](NC(=O)/C(C#N)=C/c1cccc(Br)n1)c1ccccc1

// result
1: 87.3; 2: 7.44

# return cell viability for each item in the list
1. CC[C@H](CC#N)OC(=O)N[C@@H](C)c1cccc(NC(=O)Nc2ccc(-c3cnco3)c(OC)c2)c1
2. Cc1nc(NC(=O)N2CCC[C@H]2C(N)=O)sc1-c1ccnc(C(C)(C)C(F)(F)F)c1
3. C[C@](O)(COc1ccc(C#N)cc1)C(=O)Nc1ccc(C#N)c(C(F)(F)F)c1
4. OC1=C(O)C2=C(\C=C/C(=O)O2)C=C1
5. CC(=O)Nc1ccc(OC[C@](C)(O)C(=O)Nc2ccc([N+](=O)[O-])c(C(F)(F)F)c2)cc1
6. O=C([O-])C(O)Cc1ccc(O)c(O)c1 (stereo unspecified)

// result
1. 38.7
2. 89.2
3. 49.7
4. 9.04
5. 48
6. 50.4

Here are 5 compounds. What values of cell viability were reported for them?
1. Cc1c(CN2CCN(C(=O)[C@H](C)O)CC2)sc2c(N3CCOCC3)nc(-c3cnc(N)nc3)nc12
2. O=C(OC)[C@]12CC[C@@]3(C)[C@]4(C)CC[C@H]5[C@@](C)(C)C(=O)C(=C[C@]5(C)C4=CC(=O)[C@@H]3[C@@H]2C[C@](C)(C)CC1)C#N
3. COc1cnc(N[S+](=O)([O-])c2ccc(N)cc2)nc1
4. CC[C@H](CC[C@@H](C)[C@H]1CC[C@H]2[C@@H]3C\C=C/4C[C@@H](O)CC[C@]4(C)[C@H]3CC[C@]12C)C(C)C
5. C[C@H]1[C@H](NC(=O)/C(=N/OC(C)(C)C(=O)O)c2csc(N)n2)C(=O)N1[S+](=O)([O-])O

// result
[30.5, 3.38, 118, 94.6, 88.2]

Would you be so kind as to report cell viability for each listed record?
1. CC1=C(/C=C/C(C)=C/C=C/C(C)=C/C=C/C=C(C)/C=C/C=C(C)/C=C/C2=C(C)CCCC2(C)C)C(C)(C)CCC1
2. c1cncc(CN2CCC(n3ncc4c(N5CCOCC5)nc(-c5ccc6[nH]ccc6c5)nc43)CC2)c1
3. CN(c1ncccc1CNc1nc(Nc2ccc3c(c2)CC(=O)N3)ncc1C(F)(F)F)[S+](C)(=O)[O-]
4. CCCCCOC(=O)NC\1=N\C(=O)N(\C=C1F)[C@@H]2O[C@H](C)[C@@H](O)[C@H]2O
5. CC(N[C@H]1C[C@@H]1c1ccccc1)c1ccc2c(c1)OCCO2 (stereo partly specified)
6. CC\1=C(C(\N=C(/N1)C2=CC(=NC=C2)Cl)C3=C(F)C=C(Cl)C=C3)/C(=O)NC4=C(F)C=C5[NH]N=CC5=C4 (stereo unspecified)
7. CC(=O)O.Cc1c(-c2ccc(O)cc2)n(Cc2ccc(OCCN3CCCCCC3)cc2)c2ccc(O)cc12

// result
[85.5, 8.23, 3.18, 86.2, 92.6, 13.5, 101]

Return reported cell viability values for all items listed beneath this line.
1. COC1CCC(CC1)N(C(=O)C2CCC(C)CC2)C3=C(SC(=C3)\C4=C\CCCC4)C(O)=O (stereo unspecified)
2. CC1=CC=CC=C1N2\C(=N/C3=C(C(=CC=C3)C)C2=O)C[N]4C=NC5=C4N=CN=C5N

// result
68
33.8

Respectfully, I request cell viability for each entry included below.
1. COC[C@H]1OC(=O)C2=COC3=C2[C@@]1(C)\C4=C(C5CCC(=O)[C@@]5(C)C[C@H]4OC(C)=O)/C3=O (stereo partly specified)
2. CCc1cncnc1N1CCN(Cc2nc3cc(C(F)(F)F)ccc3[nH]2)CC1
3. Cc1ccccc1N1C(=O)c2cc([S+](N)(=O)[O-])c(Cl)cc2NC1C (stereo unspecified)
4. C[C@]12CC[C@@H]3c4ccc(OC(=O)N(CCCl)CCCl)cc4CC[C@H]3[C@@H]1CC[C@@H]2OP(=O)([O-])[O-].[Na+].[Na+]
5. Cc1cc(OCCCc2c(C(=O)O)n(Cc3cccnc3)c3c(-c4c(COc5ccc(N6CCN([S+](C)(=O)[O-])CC6)cc5)nn(C)c4C)cccc23)cc(C)c1Cl

// result
1. 50.9
2. 22.1
3. 97.2
4. 54.9
5. 53.1

Please go through the list and note cell viability for each compound.
1. CN(C)c1ccc(O)c2c1C[C@H]1C[C@H]3[C@H](N(C)C)C(O)=C(C(N)=O)C(=O)[C@@]3(O)C(O)=C1C2=O
2. COC1=C(N2CCNC(C)C2)C(=CC3=C1N(\C=C(C(O)=O)/C3=O)C4CC4)F (stereo unspecified)
3. CN[S+](=O)([O-])Cc1ccc2[nH]cc(CCN(C)C)c2c1
4. CC/C(=C(/c1ccc(O)cc1)c1ccc(OCCNC)cc1)c1ccccc1

// result
1. 104
2. 12.2
3. 92.9
4. 38
